PROTOCOL_TEXT: BSK_4H_Eotaxin3: BioMAP Diversity Plus: 4H Assay for Eotaxin 3 Biomarker Activity (AID 2283000)
DETAILS: primary human endothelial cells (HUVEC); actives raise or lower the signal
Protocol: BSK_4H is a cell-based, multiplexed-readout assay that uses umbilical vein endothelium, a human vascular primary cell, with measurements taken at 24 hours after chemical dosing in a 96-well plate.BSK_4H_Eotaxin3 is an assay component measured in the BSK_4H assay. It measures Eotaxin-3 antibody related to regulation of gene expression using ELISA technology.Data from the assay component BSK_4H_Eotaxin3 was analyzed into 1 assay endpoint. […]
Activity calls are given as the source filed them. The calls were made as follows: active = hit-call score of the fitted dose curve at least 0.9, where 1 is the maximum; inactive = score below 0.9.
Classes used: t (active), f (inactive)

CHEM_SMILES	GROUP_LABEL
CCOP(=S)(OCC)SCSP(=S)(OCC)OCC	f
CCOC(=O)/C=C(C)/C=C/C[C@@H](C)CCCC(C)C	t
O=C(Nc1ccc2[nH]ccc2c1)c1cc2cc(F)ccc2n1Cc1cccc(F)c1	t
C[C@]12CCC(=O)C[C@@H]1CC[C@@H]1[C@@H]2CC[C@]2(C)[C@@H](O)CC[C@@H]12	f
Oc1cccc2cccnc12	t

###

PROTOCOL_TEXT: BSK_3C_VCAM1: BioMAP Diversity Plus: 3C Assay for Vascular cell adhesion molecule 1 (VCAM1) Biomarker Activity (AID 2282999)
DETAILS: BioMAP 3C HUVEC, VCAM1 ELISA, cytokine-stimulated; actives raise or lower the signal
Calls of active or inactive are those of the source. How the source made its calls: active means hit-call score of the fitted dose curve at least 0.9, where 1 is the maximum; inactive means score below 0.9.
Classes used: t (active), f (inactive)

COMPOUND	GROUP_LABEL
O=C1C2(Cl)C3(Cl)C4(Cl)C(Cl)(Cl)C5(Cl)C3(Cl)C1(Cl)C5(Cl)C24Cl (configuration not stated)	t
O=C(O)C(F)(F)C(F)(F)C(F)(F)C(F)(F)C(F)(F)C(F)(F)F	f
CN(C)N=O	f
O=C(O)C(Cl)(Cl)Cl	f
CC(C)CCCCCCOC(=O)c1ccccc1C(=O)OCCCCCCC(C)C	f
ClC1=C(Cl)[C@]2(Cl)[C@H]3[C@H]([C@H]4C=C[C@H]3C4)[C@@]1(Cl)C2(Cl)Cl	t
COP(=S)(OC)Oc1c(Cl)cc(C)cc1Cl	f
CCN1CCC2(CC1)COc1cc3c(cc12)N(C(=O)c1ccc(-c2ccc(-c4nnc(C)o4)cc2C)cc1)CC3	t
O=Cc1cccc(Oc2ccccc2)c1	f
CCOC(=O)/C=C(C)/C=C/C[C@@H](C)CCCC(C)C	t
COP(=S)(OC)Oc1cc(Cl)c(Cl)cc1Cl	f
COc1cc(-c2ccc(N)c(OC)c2)ccc1N	f

###

Test system: DIO3 (gene 1735)
PROTOCOL_TEXT: CCTE_GLTED_hDIO3: CCTE's human Deiodinase 3 (DIO3) Inhibition Assay, Great Lakes Toxicology and Ecology Division (GLTED) Lab (AID 2284055)
The source made the active and inactive calls. How the source made its calls: active means hit-call score of the fitted dose curve at least 0.9, where 1 is the maximum; inconclusive means response in the unintended direction; inactive means score below 0.9.
Classes used: active, inactive

COMPOUND	GROUP_LABEL
CCC(C)(C)c1ccc(O)c(C(C)(C)CC)c1	active
CC12CC1(C)C(=O)N(c1cc(Cl)cc(Cl)c1)C2=O (stereo not drawn)	inactive
Cl/C=C\C[N+]12CN3CN(CN(C3)C1)C2	active
C=CC(=O)OCCCCCC(C)C	active
O=C1C(Cl)=C(Cl)C(=O)c2ccccc21	active
Clc1ccc(COC(Cn2ccnc2)c2ccc(Cl)cc2Cl)cc1 (stereo not drawn)	inactive
CC(C)(c1ccc(OCC2CO2)cc1)c1ccc(OCC2CO2)cc1 (stereo not drawn)	active
CCCCCCCCc1ccc(O)cc1	active
